These data points were gathered from patent US8563714B2.

- TARGET DESC: human ALX receptor (Homo sapiens, UniProt P25090)
- Sequence (P25090 1-351): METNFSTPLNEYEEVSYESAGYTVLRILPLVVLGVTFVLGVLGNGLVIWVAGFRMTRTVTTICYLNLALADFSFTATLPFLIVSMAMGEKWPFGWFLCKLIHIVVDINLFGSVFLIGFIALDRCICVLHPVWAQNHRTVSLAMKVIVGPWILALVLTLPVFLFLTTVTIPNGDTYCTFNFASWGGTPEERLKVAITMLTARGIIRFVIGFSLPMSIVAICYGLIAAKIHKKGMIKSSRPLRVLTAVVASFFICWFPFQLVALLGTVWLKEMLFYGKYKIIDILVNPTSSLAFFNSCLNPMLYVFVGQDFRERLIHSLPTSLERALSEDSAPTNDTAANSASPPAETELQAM
- TEST SUMMARY: Intracellular calcium measurements (FLIPR), agonistic activity in HEK293-hALXR-Gα16 cells
- RUN CONDITIONS: Fluo-4 calcium FLIPR, normalized to WKYMVm 10 nM
pEC50: −log10 of the molar value.
MEASUREMENT NAME: pEC50

Solved cases below.
• CC(=O)c1csc(CNC(=O)[C@H]2[C@H](C(=O)NCCCc3nc4ccccc4[nH]3)[C@H]3C=C[C@@H]2C32CC2)n1 (racemic) [Example 247] = 6.97
• CN(C)CCCNC(=O)[C@H]1[C@H](C(=O)Nc2ncc(Br)s2)[C@@H]2C=C[C@H]1C21CC1 (racemic) [Example 277] = 7.21
• CC(C)CNC(=O)[C@H]1[C@H](C(=O)Nc2ccc(Br)cc2)[C@@H]2C=C[C@H]1C21CC1 (racemic) [Example 4] = 9.62
• O=C(NCC1C(C(=O)Nc2ccc(Br)cc2)C2C=CC1C21CC1)c1cnoc1-c1ccccc1 (stereo not drawn) [Example 160] = 7.43

a. CCSCCNC(=O)[C@H]1[C@H](C(=O)Nc2ccc(Br)cc2)[C@@H]2C=C[C@H]1C21CC1 (racemic) [Example 24]
b. Cc1ccc(CNC(=O)[C@H]2[C@H](C(=O)NCCCCN3CCCC3)[C@H]3C=C[C@@H]2C32CC2)cc1 (racemic) [Example 123]
Prompt: Select one: a or b . Criterion: greater recorded pEC50. Label of pick, please.
Completion: a

* * *

- TARGET DESC: human FPRL2 (Homo sapiens, UniProt P25089)
- TEST SUMMARY: Intracellular calcium measurements (FLIPR), agonistic activity in HEK293-hFPRL2-Gα16 cells
- RUN CONDITIONS: Fluo-4 calcium FLIPR, normalized to GLY14-Humanin 100 nM
MEASUREMENT NAME: EC50 (nM)

• CN(C)CCNC(=O)[C@H]1[C@H](C(=O)NCCc2ccc(Cl)cc2)[C@@H]2C=C[C@H]1C21CC1 = 623

A. CC(=O)c1nc(CNC(=O)[C@H]2[C@H](C(=O)NCCCCN3CCCC3)[C@H]3C=C[C@@H]2C32CC2)cs1 (racemic)
B. COc1ccc(NC(=O)C2C(C(=O)NCCC(N)=O)C3C=CC2C32CC2)cc1 (stereo not shown)
Prompt: Consider entries A and B . Which has the numerically lower EC50? Label of pick, please.
Completion: A

* * *

- TARGET DESC: UniProtKB P25089
- Sequence (P25089 1-353): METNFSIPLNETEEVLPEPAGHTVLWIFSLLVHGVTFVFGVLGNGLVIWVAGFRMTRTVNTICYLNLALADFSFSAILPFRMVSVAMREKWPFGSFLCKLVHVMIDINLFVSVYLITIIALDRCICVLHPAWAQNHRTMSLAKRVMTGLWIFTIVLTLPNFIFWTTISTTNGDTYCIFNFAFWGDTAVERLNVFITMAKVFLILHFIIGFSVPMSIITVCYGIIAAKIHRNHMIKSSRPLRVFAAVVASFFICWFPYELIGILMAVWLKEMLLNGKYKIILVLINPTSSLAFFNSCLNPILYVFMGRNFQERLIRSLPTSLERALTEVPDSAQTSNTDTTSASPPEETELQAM
- TEST SUMMARY: Intracellular calcium measurements (FLIPR), agonistic activity in HEK293-hFPRL2-Gα16 cells
- RUN CONDITIONS: Fluo-4 calcium FLIPR, normalized to GLY14-Humanin 100 nM
MEASUREMENT NAME: EC50 (µM)

- CC(=O)c1coc(CNC(=O)[C@H]2[C@H](C(=O)NCCCCN3CCCC3)[C@H]3C=C[C@@H]2C32CC2)n1 (racemic): 2.3

1. O=C(CCCN1CCCC1=O)NC[C@H]1[C@H](C(=O)Nc2ccc(Br)cc2)[C@@H]2C=C[C@H]1C21CC1 (racemic)
2. CC(C)CNC(=O)[C@H]1[C@H](C(=O)NCc2ccc(Br)cc2)[C@@H]2C=C[C@H]1C21CC1 (racemic)
3. Cc1cc(C)n(CCC(=O)NCC2C(C(=O)Nc3ccc(Br)cc3)C3C=CC2C32CC2)n1 (stereo not shown)
4. CNCCCNC(=O)[C@H]1[C@H](C(=O)Nc2ncc(Br)s2)[C@@H]2CC[C@H]1C21CC1
Prompt: Parameters: sort_field (EC50), sort_dir (desc). Use the labels to give the ranking in the order requested.
Completion: 1, 2, 3, 4
(1: 7.92 µM, 2: 5.33 µM, 3: 2.37 µM, 4: 0.773 µM)

* * *

- TARGET DESC: human ALX receptor (Homo sapiens, UniProt P25090)
- TEST SUMMARY: Intracellular calcium measurements (FLIPR), agonistic activity in HEK293-hALXR-Gα16 cells
- RUN CONDITIONS: Fluo-4 calcium FLIPR, normalized to WKYMVm 10 nM
MEASUREMENT NAME: EC50 (nM)

* O=C(NCCCCN1CCCC1)[C@H]1[C@H](C(=O)Nc2ncc(Cl)s2)[C@@H]2C=C[C@H]1C21CC1 (racemic) | 121
* O=C(NCCN1CCNC1=O)[C@H]1[C@H](C(=O)NCc2ccc(Br)cc2)[C@@H]2C=C[C@H]1C21CC1 (racemic) | 181
* O=C(NCCCCN1CCCC1)[C@H]1[C@H](C(=O)Nc2ccc(Br)cc2)[C@@H]2C=C[C@H]1C21CC1 | 0.1
* NC(=O)CCNC(=O)[C@H]1[C@H](C(=O)Nc2ccc(Br)cn2)[C@@H]2C=C[C@H]1C21CC1 | 258

a. CCN1CCN(CCCCNC(=O)[C@H]2[C@H](C(=O)Nc3ccc(Br)cc3)[C@@H]3C=C[C@H]2C32CC2)CC1
b. O=C(NCCCCN1CCCC1)[C@H]1[C@H](C(=O)Nc2ccc(Br)c(F)c2F)[C@@H]2C=C[C@H]1C21CC1
c. NC(=O)CNC(=O)[C@H]1[C@H](C(=O)Nc2ccc(Br)cc2)[C@@H]2C=C[C@H]1C21CC1 (racemic)
Prompt: Put the compounds in ascending order of EC50. Use the labels to give the ranking in the order requested.
Completion: a, c, b
(a: 2.3 nM, c: 6.5 nM, b: 236 nM)

* * *

- TARGET DESC: UniProtKB P25089
- Sequence (P25089 1-353): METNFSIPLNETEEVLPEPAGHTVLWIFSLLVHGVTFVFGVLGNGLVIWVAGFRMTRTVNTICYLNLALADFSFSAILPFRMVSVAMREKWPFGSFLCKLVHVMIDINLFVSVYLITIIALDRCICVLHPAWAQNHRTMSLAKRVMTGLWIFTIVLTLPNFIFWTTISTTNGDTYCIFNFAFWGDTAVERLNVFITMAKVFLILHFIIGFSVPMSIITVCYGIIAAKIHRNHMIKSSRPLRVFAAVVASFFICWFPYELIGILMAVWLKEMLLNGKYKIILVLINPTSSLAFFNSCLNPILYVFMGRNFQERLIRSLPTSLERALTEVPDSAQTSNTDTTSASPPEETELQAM
- TEST SUMMARY: Intracellular calcium measurements (FLIPR), agonistic activity in HEK293-hFPRL2-Gα16 cells
- RUN CONDITIONS: Fluo-4 calcium FLIPR, normalized to GLY14-Humanin 100 nM
MEASUREMENT NAME: EC50 (nM)

- CC(C)(CN)CNC(=O)[C@H]1[C@H](C(=O)Nc2ccc(Br)cc2)[C@@H]2C=C[C@H]1C21CC1 (racemic): 726
- CC(C)(C)OC(=O)N1CCC(NC(=O)[C@H]2[C@H](C(=O)Nc3ccc(Br)cc3)[C@@H]3C=C[C@H]2C32CC2)CC1 (racemic): 1040
- CC(C)(C)OC(=O)N1CCCC1CNC(=O)C1C(C(=O)Nc2ccc(Br)cc2)C2C=CC1C21CC1 (mixture of isomers): 1300
- CC(C)(C)OC(=O)NCCCCCNC(=O)C1C(C(=O)Nc2ncc(Br)s2)C2CCC1C21CC1 (centres unmarked): 1240
- O=C(Nc1ncc(Br)s1)C1C(C(=O)NC2CCNC2)C2CCC1C21CC1 (centres unmarked): 1020
